- Tested on: MCF-7 cells
- ASSAY_PROTOCOL: Radioactive glucose uptake in MCF-7 cells
- Format: cell-based
- TEST_PARAMETERS: Homo sapiens, MCF7, 3H-2DG uptake
Recorded IC50, one value per entry.

"Cc1cc(C)c(C(=O)N2CCN(c3cccnn3)[C@H](CN)C2)c(C)c1NC1CCN(c2ccccc2C#N)CC1" yielded IC50 of 10 to 1000 nM

"Cc1cc(C)c(C(=O)N2CCN(c3cccc(S(N)(=O)=O)c3)CC2)cc1NC1CCN(c2ccccc2Cl)CC1" yielded IC50 of > 10000 nM

"Cc1cc(C)c(C(=O)N2CCN(c3cccnn3)[C@H](CN)C2)c(C)c1NC1CCN(c2ccc(F)cc2C#N)CC1" yielded IC50 of 3000 to 5000 nM

"Cc1cc(C)c(C(=O)N2CCN(c3cccc(F)c3[S@](C)(=N)=O)C[C@@H]2C)c(C)c1NC1CCN(c2ccccc2C#N)CC1" yielded IC50 of 10 to 1000 nM

Origin of values: patent US10844013B2
